- Tested on: Staphylococcus aureus
- protocol.text: Antibacterial activity against vancomycin-intermediate resistant Staphylococcus aureus Mu50 assessed as inhibition of bacterial growth after 16 hrs
- Format: functional, organism-based
- particulars: Mu50, 16 h
observation.type: IC50 (µg/mL)
Answer in µg/mL, number only, no unit symbol.

Param item = CN[C@H](CC(C)C)C(=O)N[C@H]1C(=O)N[C@@H](CC(N)=O)C(=O)N[C@H]2C(=O)N[C@H]3C(=O)N[C@H](C(=O)N[C@H](C(=O)O)c4cc(O)cc(O)c4-c4cc3ccc4O)[C@H](O)c3ccc(c(Cl)c3)Oc3cc2cc(c3O[C@@H]2O[C@H](CO)[C@@H](O)[C@H](O)[C@H]2O[C@H]2C[C@](C)(NCc3ccc(-c4ccc(Cl)cc4)cc3)[C@H](O)[C@H](C)O2)Oc2ccc(cc2Cl)[C@H]1O ; retrieve measured IC50.
2
